Molecular target: FLT3(WT) (Homo sapiens, UniProt P36888)
pIC50: −log10 of the molar value.
property_name: pIC50

[[record]]
compound_structure_string = "Cc1cnc(-c2ccc(-c3ccc(NC(=O)Nc4c(F)cc(F)cc4F)cc3F)c3c2C(=O)NC3)[nH]1"
target_entity = "FLT3(WT) (Homo sapiens, UniProt P36888)"
measured_number = 8.06


====

Biological target: BTK C481S (Homo sapiens, UniProt Q06187, C481S)
Sequence (Q06187 whole entry C481S): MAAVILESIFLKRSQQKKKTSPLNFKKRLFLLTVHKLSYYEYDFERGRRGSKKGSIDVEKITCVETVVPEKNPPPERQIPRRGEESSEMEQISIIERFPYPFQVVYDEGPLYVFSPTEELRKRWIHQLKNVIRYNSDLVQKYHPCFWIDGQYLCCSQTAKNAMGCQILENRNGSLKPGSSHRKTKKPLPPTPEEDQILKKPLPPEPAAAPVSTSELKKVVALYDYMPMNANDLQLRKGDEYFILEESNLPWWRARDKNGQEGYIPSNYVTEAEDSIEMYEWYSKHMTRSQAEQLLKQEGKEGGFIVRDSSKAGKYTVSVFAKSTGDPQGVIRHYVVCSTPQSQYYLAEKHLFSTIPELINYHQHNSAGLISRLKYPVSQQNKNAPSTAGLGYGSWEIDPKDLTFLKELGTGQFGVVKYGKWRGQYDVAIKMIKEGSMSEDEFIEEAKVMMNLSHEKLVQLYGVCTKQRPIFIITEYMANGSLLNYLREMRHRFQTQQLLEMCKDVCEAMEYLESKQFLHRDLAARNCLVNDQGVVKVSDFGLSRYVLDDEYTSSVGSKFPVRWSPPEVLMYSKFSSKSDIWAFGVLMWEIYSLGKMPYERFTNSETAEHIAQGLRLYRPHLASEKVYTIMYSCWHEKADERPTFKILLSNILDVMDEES
Assay: Comparative potency against BTK (Table 8)
Type: biochemical
Conditions: x printed without key
Item-by-item account of IC50
property_name: IC50 (nM)

[[record]]
molecule = "Cc1cnc(-c2ccc(-c3ccc(NC(=O)Nc4c(F)cc(F)cc4F)cc3F)c3c2C(=O)NC3)[nH]1 [Compound 7]"
property_name = "IC50"
measured_number = 2.5

[[record]]
molecule = "NC(=O)[C@H]1CCN(c2ncnc(N)c2F)C[C@@H]1N1CCC[C@@H](Nc2cc(Cl)cc(C(F)(F)F)c2)C1=O [SNS-062, reference compound]"
property_name = "IC50"
measured_number = 4.5


====

Target: FLT3(D835Y) (Homo sapiens, UniProt P36888, D835Y)
Sequence (P36888 27-993 D835Y): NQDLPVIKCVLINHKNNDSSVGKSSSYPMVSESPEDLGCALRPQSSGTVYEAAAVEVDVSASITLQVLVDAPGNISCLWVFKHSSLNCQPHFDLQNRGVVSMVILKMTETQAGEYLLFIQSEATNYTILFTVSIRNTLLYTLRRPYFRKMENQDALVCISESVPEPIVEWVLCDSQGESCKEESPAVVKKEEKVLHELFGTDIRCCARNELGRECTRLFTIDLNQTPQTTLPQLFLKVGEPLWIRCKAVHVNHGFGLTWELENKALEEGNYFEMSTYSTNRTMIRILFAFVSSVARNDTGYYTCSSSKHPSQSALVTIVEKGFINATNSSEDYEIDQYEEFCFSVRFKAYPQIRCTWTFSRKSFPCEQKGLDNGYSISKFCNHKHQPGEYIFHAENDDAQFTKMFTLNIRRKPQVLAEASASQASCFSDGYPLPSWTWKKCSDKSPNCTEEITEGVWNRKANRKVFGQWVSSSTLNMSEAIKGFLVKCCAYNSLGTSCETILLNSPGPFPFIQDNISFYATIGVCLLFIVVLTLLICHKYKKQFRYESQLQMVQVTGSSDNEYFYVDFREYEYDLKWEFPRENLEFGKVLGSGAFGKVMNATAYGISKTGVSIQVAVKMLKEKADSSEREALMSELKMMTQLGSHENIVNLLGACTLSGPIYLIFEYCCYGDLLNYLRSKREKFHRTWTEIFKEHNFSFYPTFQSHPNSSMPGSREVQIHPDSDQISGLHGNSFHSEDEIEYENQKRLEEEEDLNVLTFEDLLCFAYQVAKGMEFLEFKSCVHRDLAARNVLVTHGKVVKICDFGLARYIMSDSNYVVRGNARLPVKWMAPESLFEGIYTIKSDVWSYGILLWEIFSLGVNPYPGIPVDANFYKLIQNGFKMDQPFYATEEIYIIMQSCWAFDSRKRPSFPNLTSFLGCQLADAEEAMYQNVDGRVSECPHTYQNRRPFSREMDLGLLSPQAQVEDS
Test: Binding constant (Kd), competition binding with qPCR readout
pKd: −log10 of the molar value.
property_name: pKd

[[record]]
compound = "Cc1cnc(-c2ccc(-c3ccc(NC(=O)Nc4c(F)cc(F)cc4F)cc3F)c3c2C(=O)NC3)[nH]1 [Compound 7]"
property_name = "pKd"
measured_number = 8.38


====

Below, each entry is listed with its recorded pIC50.
Target: ITK (Homo sapiens, UniProt Q08881)
Sequence (Q08881 1-620): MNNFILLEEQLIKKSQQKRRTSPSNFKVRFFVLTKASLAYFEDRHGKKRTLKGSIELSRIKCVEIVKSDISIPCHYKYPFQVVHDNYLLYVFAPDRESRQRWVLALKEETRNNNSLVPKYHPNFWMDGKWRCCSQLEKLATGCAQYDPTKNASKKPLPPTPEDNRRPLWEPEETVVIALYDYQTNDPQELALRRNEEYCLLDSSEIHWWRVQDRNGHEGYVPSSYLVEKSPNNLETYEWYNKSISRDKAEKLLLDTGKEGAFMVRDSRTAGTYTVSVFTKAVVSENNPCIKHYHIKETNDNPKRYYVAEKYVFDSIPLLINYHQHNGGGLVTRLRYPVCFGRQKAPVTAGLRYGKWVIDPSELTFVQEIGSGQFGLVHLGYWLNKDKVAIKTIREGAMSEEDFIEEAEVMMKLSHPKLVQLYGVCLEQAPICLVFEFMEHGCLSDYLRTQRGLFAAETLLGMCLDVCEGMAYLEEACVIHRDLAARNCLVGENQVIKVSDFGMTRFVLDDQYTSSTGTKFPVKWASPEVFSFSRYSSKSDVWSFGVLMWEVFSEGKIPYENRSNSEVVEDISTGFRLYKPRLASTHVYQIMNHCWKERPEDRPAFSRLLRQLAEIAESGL
Test: Key off-targets (Table 8)
Type: biochemical
pIC50: −log10 of the molar value.
property_name: pIC50

[[record]]
molecule = "NC(=O)[C@H]1CCN(c2ncnc(N)c2F)C[C@@H]1N1CCC[C@@H](Nc2cc(Cl)cc(C(F)(F)F)c2)C1=O [SNS-062, reference compound]"
target_entity = "ITK (Homo sapiens, UniProt Q08881)"
measured_number = 7.31

[[record]]
molecule = "Cc1cnc(-c2ccc(-c3ccc(NC(=O)Nc4c(F)cc(F)cc4F)cc3F)c3c2C(=O)NC3)[nH]1"
target_entity = "ITK (Homo sapiens, UniProt Q08881)"
measured_number = 8.37


====

Test system: MV4-11
Experiment: Cytotoxicity, MTS cell viability
Format: cell-based
Conditions: Homo sapiens, AML, 72 hour MTS
pIC50: −log10 of the molar value.
property_name: pIC50

[[record]]
compound_structure_string = "Cc1cnc(-c2ccc(-c3ccc(NC(=O)Nc4c(F)cc(F)cc4F)cc3F)c3c2C(=O)NC3)[nH]1"
measured_number = 9.62


====

System: THP-1 (FLT3-WT, t(9:11))
Experiment: Antiproliferative activity (Table 6)
Format: cell-based
Conditions: Homo sapiens; THP-1; 48 h (Gilteritinib); read-out: IC50
property_name: IC50 (nM)

[[record]]
compound = "CCc1nc(C(N)=O)c(Nc2ccc(N3CCC(N4CCN(C)CC4)CC3)c(OC)c2)nc1NC1CCOCC1 [Gilteritinib, reference compound]"
measured_number = 2300


====

Recorded measurements of pIC50, one per entry
Tested on: Ba/F3 cells transfected with FLT3 ITD-D835Y
Test: Cytotoxicity in isogenic transfected Ba/F3 cells (Table 4)
Format: cell-based, Murin
Settings: Mus musculus, BaF3; n = 3; read-out: IC50 in Transfected Ba/F3 cells, FLT3 ITD-D835Y
pIC50: −log10 of the molar value.
property_name: pIC50

[[record]]
compound = "CCc1nc(C(N)=O)c(Nc2ccc(N3CCC(N4CCN(C)CC4)CC3)c(OC)c2)nc1NC1CCOCC1 [Gilteritinib, reference compound]"
property_name = "pIC50"
measured_number = 8.17

[[record]]
compound = "CC1(COc2ccc3c(c2)ncn3-c2ccc3cccc(N4CCC(N)CC4)c3n2)COC1"
property_name = "pIC50"
measured_number = 7.50


====

Biological target: FLT3(D835Y) (Homo sapiens, UniProt P36888, D835Y)
Assay: Inhibition of FLT3 mutants, kinase IC50
pIC50: −log10 of the molar value.
property_name: pIC50

[[record]]
compound = "Cc1cnc(-c2ccc(-c3ccc(NC(=O)Nc4c(F)cc(F)cc4F)cc3F)c3c2C(=O)NC3)[nH]1 [Compound 7]"
property_name = "pIC50"
measured_number = 6.78


====

Test system: Ba/F3 cells transfected with FLT3 ITD-F691L
Experiment: Cytotoxicity in isogenic transfected Ba/F3 cells (Table 4)
Format: cell-based, Murin
Settings: Mus musculus, BaF3, read-out: IC50 in Transfected Ba/F3 cells, FLT3 ITD-F691L
pIC50: −log10 of the molar value.
property_name: pIC50

[[record]]
molecule = "Cc1cnc(-c2ccc(-c3ccc(NC(=O)Nc4c(F)cc(F)cc4F)cc3F)c3c2C(=O)NC3)[nH]1 [Compound 7]"
measured_number = 8.00


====

System: Ba/F3-ITD + 691 (ITD + F691L)
Assay: Antiproliferative activity (Table 6)
Format: cell-based, Murin
Details: 72 h
pIC50: −log10 of the molar value.
property_name: pIC50

[[record]]
compound = "Cc1cnc(-c2ccc(-c3ccc(NC(=O)Nc4c(F)cc(F)cc4F)cc3F)c3c2C(=O)NC3)[nH]1 [Compound 7]"
measured_number = 9.37


====

System: U2932
Assay: Cytotoxicity, MTS cell viability
Format: cell-based
Details: Homo sapiens, 72 h, ABC-DLBCL, 3 days MTS
Method: Cells were seeded in a 96 well plate and treated with either vehicle (DMSO) or compound 7 at 10 different concentrations for 3 days at 37° C. and 5% CO2. Cell viability was assessed using CellTiter 96 AQueous one solution (MTS Promega Cat#G3581), and IC50 values calculated using GraphPad Prism 7 software.
property_name: IC50 (nM)

[[record]]
compound_structure_string = "Cc1cnc(-c2ccc(-c3ccc(NC(=O)Nc4c(F)cc(F)cc4F)cc3F)c3c2C(=O)NC3)[nH]1"
measured_number = 632

